Test system: NCI-H522 lung
Experiment: NCI tumour cell line growth inhibition, 48 h
Measured TGI of individual entries
Note: unit µM is implicit; provide only the numeric part.

Worked examples, 2 compounds total:
- smiles string: "COc1cc(OC)nc(Nc2c(C#N)c3nc4ccccc4n3c3ccccc23)n1"
  assay value: 64
- smiles string: "CCN(CC)CCOc1ccc(C(=C2CCCCC2)c2ccc(OCCN(CC)CC)cc2)cc1"
  assay value: 3.29

We next turn to a different compound, shown below.
Input: Consider the compound shown here: COc1cc(NC(N)=NCCC(C)(C)c2ccc(C(F)(F)F)cc2)ncc1C#N What is its recorded TGI?
Output: 2.97
